Target: T1, kindlin-2 (KIND2) (UniProt Q8CIB5 1-680)
T1 chain: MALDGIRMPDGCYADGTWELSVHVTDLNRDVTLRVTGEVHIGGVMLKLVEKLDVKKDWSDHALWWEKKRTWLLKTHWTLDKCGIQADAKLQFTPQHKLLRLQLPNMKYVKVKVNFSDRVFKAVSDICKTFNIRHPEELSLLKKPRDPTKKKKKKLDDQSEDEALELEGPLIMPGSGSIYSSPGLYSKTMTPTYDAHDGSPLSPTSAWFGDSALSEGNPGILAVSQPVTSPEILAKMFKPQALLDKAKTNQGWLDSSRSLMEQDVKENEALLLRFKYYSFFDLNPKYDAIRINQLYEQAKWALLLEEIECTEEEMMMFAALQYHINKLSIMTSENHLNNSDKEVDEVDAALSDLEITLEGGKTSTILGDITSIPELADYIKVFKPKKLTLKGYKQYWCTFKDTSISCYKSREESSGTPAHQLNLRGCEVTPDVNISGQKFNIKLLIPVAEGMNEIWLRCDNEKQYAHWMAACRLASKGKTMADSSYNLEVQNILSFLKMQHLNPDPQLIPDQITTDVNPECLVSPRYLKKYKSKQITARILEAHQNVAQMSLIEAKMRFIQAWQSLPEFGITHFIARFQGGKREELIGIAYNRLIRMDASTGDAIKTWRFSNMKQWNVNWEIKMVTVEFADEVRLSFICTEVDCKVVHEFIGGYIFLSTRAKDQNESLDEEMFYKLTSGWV
Assay: MST
No end group written: not given here.
Reported Kd values for the following binders.

>  <BINDER>
{ATTO 488}-KLLITIHDRKEFAKFEEERARAKWDTANNPLAKEATSTFTNITYRGT [ATTO 488-labelled β3-CT^Y772A]

>  <U>
µM

>  <Kd>
15.5

$$$$
>  <BINDER>
{ATTO 488}-KLLMIIHDRREFAKFEKEKMNAKWDTGENPIYKSAVTTVVNPKYEGK [ATTO 488-labelled β1-CT (488–β1-CT)]

>  <U>
µM

>  <Kd>
2.9

$$$$
>  <BINDER>
{ATTO 488}-KLLMIIHDRREFAKFEKEKMNAKWDTGENPIAKSAVTTVVNPKYEGK [ATTO 488-labelled β1-CT^Y783A]

>  <U>
µM

>  <Kd>
4.9

$$$$
